run description: Selectivity index, ratio of EC50 for human HCT8 cells to MIC for Mycobacterium tuberculosis CNCTC My 331/88
Assay type: functional, HCT-8
property label: Ratio
Reply: number alone, nothing else.

Query :: Entry under review: O=C(N[C@H](Cc1ccccc1)C(=O)Oc1ccc(Cl)cc1C(=O)Nc1ccc(Br)cc1)OCc1ccccc1 . Reported Ratio?
Result :: 10.61

Query :: Entry under review: CC(C)[C@@H](NC(=O)OCc1ccccc1)C(=O)Oc1ccc(Cl)cc1C(=O)Nc1ccc(Br)cc1 . Reported Ratio?
Result :: 33.35

Query :: Entry under review: O=C(N[C@H](Cc1ccccc1)C(=O)Oc1cc(Cl)ccc1C(=O)Nc1ccc(Cl)cc1)OCc1ccccc1 . Reported Ratio?
Result :: 26.05

Query :: Entry under review: CC(C)[C@H](NC(=O)OCc1ccccc1)C(=O)Oc1ccc(Cl)cc1C(=O)Nc1ccc(Br)cc1 . Reported Ratio?
Result :: 16.74

Query :: Entry under review: O=C(N[C@@H](Cc1ccccc1)C(=O)Oc1cc(Cl)ccc1C(=O)Nc1ccc(Cl)cc1)OCc1ccccc1 . Reported Ratio?
Result :: 20.73

Query :: Entry under review: CC(C)[C@@H](NC(=O)OCc1ccccc1)C(=O)Oc1cc(Cl)ccc1C(=O)Nc1ccc(Cl)cc1 . Reported Ratio?
Result :: 13.75

Where these numbers come from: ChEMBL document CHEMBL1136894
